Hey, just so you know, these numbers are from paper PMC6149922.

Molecular target: LuxR (Aliivibrio fischeri, UniProt P12746)
Sequence (P12746 1-250): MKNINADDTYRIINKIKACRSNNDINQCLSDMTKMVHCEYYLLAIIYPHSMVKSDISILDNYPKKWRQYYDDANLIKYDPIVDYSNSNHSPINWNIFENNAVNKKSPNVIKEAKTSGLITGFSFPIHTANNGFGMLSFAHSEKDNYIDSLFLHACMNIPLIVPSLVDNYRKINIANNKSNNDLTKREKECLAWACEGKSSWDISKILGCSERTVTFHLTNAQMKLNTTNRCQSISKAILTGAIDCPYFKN
Test: antagonism of […] 3-oxo-C6-HSL-induced bioluminescence, recombinant E. coli NM522 pSB401 LuxR biosensor
Measured Property: IC50

Identify measured IC50 corresponding to CCCCCC(=O)Nc1ccccc1[N+](=O)[O-] [compound 2, N-(2-nitrophenyl)hexanamide]
94 µM

Dear colleague, please send me the reported IC50 for CCCC(=O)Nc1ccccc1[N+](=O)[O-] [compound 1, N-(2-nitrophenyl)butanamide] when you can.
58 µM

Tell me measured IC50 for CCCCCC(=O)Nc1ccccc1 [compound 12, N-Phenylhexanamide] please.
79 µM
